This section presents molecules with their documented normalized growth values.
assay: chemical genetic growth profiling, strain panel (AID 1159580);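 note: tested at 20 µM; growth read once vehicle control cultures reached saturation at 30 °C; 1 = growth at the plate median or of vehicle wells; lower values mean less growth of the strain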; conditions: S. cerevisiae deletion strains, growth OD, locus YNL322C, strain KRE1 (second series), active compounds read low
In all, about 5,500 compounds went through this assay and about 2,000 (36%) were called active. About 18% were inconclusive and are not listed. The list shows a part of the results.
Response field accepts a number only; no unit should be typed.

Below, each entry is followed by its recorded normalized growth result.
{"MOLECULE": "c1ccc2[nH]c(-c3cscn3)nc2c1", "normalized growth": 0.991}
{"MOLECULE": "COc1ccc(C=CC(=O)c2ccc(O)cc2O)cc1OC", "normalized growth": 0.996}
{"MOLECULE": "O=C1OCCN1/N=C\\c1ccc([N+](=O)[O-])o1", "normalized growth": 0.992}
{"MOLECULE": "O=C(O)CNCP(=O)(O)O", "normalized growth": 1.02}
{"MOLECULE": "CC1=CC(=O)CC(C)(C)C1(O)/C=C/C(C)=C\\C(=O)O (configuration not stated)", "normalized growth": 1.02}

Any idea what normalized growth was measured for CCOC(=O)CCCCCCCCCCCCC1C=CCC1 (configuration not stated) ?
0.998

Do the same for CCOC(=O)c1ccc(N)cc1 please
1.01
